- method: Equilibrium dissociation constant for Voltage-gated calcium channel alpha2-delta subunit as inhibition of [3H]gabapentin binding to pig brain membranes
- Set-up: species or system Sus scrofa, Membrane
reported-metric: Ki (nM)
Note: unit nM is implicit; provide only the numeric part.

CC(C)C1CC1(CN)C(=O)O (stereo not given): 340
CCC(CC)C1CC1(CN)C(=O)O (stereo in doubt): 630
NCC1(C(=O)O)CC12CCCCC2 (stereo not given): 13
NCC1(C(=O)O)CC12CCC2 (stereo not given): 200
CCC(CC)C1CC1(CN)C(=O)O (stereo in doubt; 12): 560
CC(C)CC1CC1(CN)C(=O)O (stereo in doubt; 36): 330
CCCC1(CCC)CC1(CN)C(=O)O (stereo not given): 200
NCC1(C(=O)O)CC12CCCC2 (stereo not given): 23

Now for the compound whose Ki we want.
Record summary for CC(C)CC1CC1(CN)C(=O)O (stereo in doubt) : reported Ki = 37
